tested on: NCI-H1734; assay: relative viability (nuclei count vs DMSO), 5 days (fraction); higher = more cells survive; settings: first compound 0.253 µM
Please go through the items and note down their relative viability.
Could you respond with only the numeric value?

Lab note: COc1nc(C)cnc1NS(=O)(=O)c1cccnc1-c1ccc(-c2nnco2)cc1 [Zibotentan] + CC(=O)Nc1cccc(-n2c(=O)n(C3CC3)c(=O)c3c(Nc4ccc(I)cc4F)n(C)c(=O)c(C)c32)c1 [Trametinib] (partner 0.02 µM) gave relative viability of 0.705

Lab note: COc1nc(C)cnc1NS(=O)(=O)c1cccnc1-c1ccc(-c2nnco2)cc1 [Zibotentan] + Nc1nc2[nH]cc(CCc3ccc(C(=O)N[C@@H](CCC(=O)O)C(=O)O)cc3)c2c(=O)[nH]1 [Pemetrexed] (partner 0.2 µM) gave relative viability of 0.423

Lab note: COc1nc(C)cnc1NS(=O)(=O)c1cccnc1-c1ccc(-c2nnco2)cc1 [Zibotentan] + CS(=O)(=O)CCNCc1ccc(-c2ccc3ncnc(Nc4ccc(OCc5cccc(F)c5)c(Cl)c4)c3c2)o1 [Lapatinib] (partner 2 µM) gave relative viability of 1.04

Lab note: O=c1cc(-c2cccc3c2Sc2ccccc2S3)oc(N2CCOCC2)c1 + CS(=O)(=O)N1CCN(Cc2cc3nc(-c4cccc5[nH]ncc45)nc(N4CCOCC4)c3s2)CC1 [Pictilisib] (partner 1 µM) gave relative viability of 0.564

Lab note: O=c1cc(-c2cccc3c2Sc2ccccc2S3)oc(N2CCOCC2)c1 + O=C(CCCCCCC(=O)Nc1ccccc1)NO [Vorinostat] (partner 1 µM) gave relative viability of 0.94

Lab note: COc1nc(C)cnc1NS(=O)(=O)c1cccnc1-c1ccc(-c2nnco2)cc1 [Zibotentan] + CC(=O)c1c(C)c2cnc(Nc3ccc(N4CCNCC4)cn3)nc2n(C2CCCC2)c1=O [Palbociclib] (partner 0.5 µM) gave relative viability of 0.32

Lab note: O=c1cc(-c2cccc3c2Sc2ccccc2S3)oc(N2CCOCC2)c1 + CC(C)C[C@H](NC(=O)[C@H](Cc1ccccc1)NC(=O)c1cnccn1)B(O)O [Bortezomib] (partner 0.002 µM) gave relative viability of 1.06

Lab note: O=c1cc(-c2cccc3c2Sc2ccccc2S3)oc(N2CCOCC2)c1 + Cc1nc(Nc2ncc(C(=O)Nc3c(C)cccc3Cl)s2)cc(N2CCN(CCO)CC2)n1 [Dasatinib] (partner 0.075 µM) gave relative viability of 0.49

Lab note: COc1nc(C)cnc1NS(=O)(=O)c1cccnc1-c1ccc(-c2nnco2)cc1 [Zibotentan] + Cc1cc(Nc2cc(N3CCN(C)CC3)nc(Sc3ccc(NC(=O)C4CC4)cc3)n2)n[nH]1 [Tozasertib] (partner 0.1 µM) gave relative viability of 0.253

Lab note: O=c1cc(-c2cccc3c2Sc2ccccc2S3)oc(N2CCOCC2)c1 + O=C(c1cc(Cc2n[nH]c(=O)c3ccccc23)ccc1F)N1CCN(C(=O)C2CC2)CC1 [Olaparib] (partner 8 µM) gave relative viability of 0.659

Lab note: O=c1cc(-c2cccc3c2Sc2ccccc2S3)oc(N2CCOCC2)c1 + CC1(C)CCC(c2ccc(Cl)cc2)=C(CN2CCN(c3ccc(C(=O)NS(=O)(=O)c4ccc(N[C@H](CCN5CCOCC5)CSc5ccccc5)c(S(=O)(=O)C(F)(F)F)c4)cc3)CC2)C1 [Navitoclax] (partner 0.5 µM) gave relative viability of 1.13

Lab note: COc1nc(C)cnc1NS(=O)(=O)c1cccnc1-c1ccc(-c2nnco2)cc1 [Zibotentan] + N=C(N)NC(=N)NCCc1ccccc1 [Phenformin] (partner 250 µM) gave relative viability of 0.396

Lab note: COc1nc(C)cnc1NS(=O)(=O)c1cccnc1-c1ccc(-c2nnco2)cc1 [Zibotentan] + NC(=O)Nc1cc(-c2cccc(F)c2)sc1C(=O)N[C@H]1CCCNC1 [AZD7762] (partner 0.2 µM) gave relative viability of 0.521

Lab note: COc1nc(C)cnc1NS(=O)(=O)c1cccnc1-c1ccc(-c2nnco2)cc1 [Zibotentan] + C[C@]1(O)C[C@@H](c2nc(-c3ccc4ccc(-c5ccccc5)nc4c3)c3c(N)nccn32)C1 [Linsitinib] (partner 1 µM) gave relative viability of 0.815
